# System: L1210 leukemia ip in BDF1 mice, survival T/C
# TEST SUMMARY: NCI In Vivo Anticancer Drug Screen. Data for tumor model L1210 Leukemia (intraperitoneal) in B6D2F1 (BDF1) mice
# TEST CONDITIONS: endpoint: mean survival time; dose: 400.0 mg/kg/injection; schedule: Q01DX009 (ip); vehicle: saline with Tween-80; higher = longer survival
Toxic doses and inconclusive results are not listed.
Listed here: items and their measured T/C.

Recorded T/C, per entry:
O=C(CC(O)(C(F)(F)Cl)C(F)(F)Cl)c1cccs1: 98 % of control
C/C=C/C=C\COC(=O)C(C)(C)CCC: 93 % of control
Cc1nc(OCc2ccccc2)c(C(=O)OCc2ccccc2)nc1C: 101 % of control
BrC1(Br)C2CC3C(CC21)C1CC2C(CC31)C2(Br)Br (stereo unspecified): 105 % of control
C=C(NC(=O)Cc1ccccc1)C(=O)OC: 95 % of control

Give L1210 leukemia ip in BDF1 mice, survival T/C T/C for CCOC(=O)CNC(=O)Nc1ccc(S(N)(=O)=O)cc1
96 % of control

L1210 leukemia ip in BDF1 mice, survival T/C / T/C / CC(C)(C)c1cc(CN2CCOCC2)cc(C(C)(C)C)c1O : value?
96 % of control

What value of T/C on L1210 leukemia ip in BDF1 mice, survival T/C does CCOC(=O)C(C)C(C)(O)c1ccccc1 (stereo unspecified) have?
96 % of control

* * *

# Test system: L1210 leukemia ip in BDF1 mice, survival T/C
# TEST SUMMARY: NCI In Vivo Anticancer Drug Screen. Data for tumor model L1210 Leukemia (intraperitoneal) in B6D2F1 (BDF1) mice
# TEST CONDITIONS: endpoint: mean survival time; dose: 400.0 mg/kg/injection; schedule: Q01DX001 (ip); vehicle: other; higher = longer survival
Toxic doses and inconclusive results are not listed.
OBSERVED PROPERTY: T/C

Example results:
CC(=O)N(c1ccccc1)c1ccc(-c2ccc(N(C(C)=O)c3ccccc3)cc2)cc1: 89 % of control
O=C(OC1CCCCC1)c1ccccc1-c1ccccc1C(=O)OC1CCCCC1: 86 % of control

Form field: reported T/C of CC(=O)OC1CCC(NC(N)=O)CC1 (centres undefined)
97 % of control

For the compound NC(=O)CC(N)C(=O)O (centres undefined) , what T/C is on record?
107 % of control

* * *

# System: L1210 leukemia ip in BDF1 mice, survival T/C
# TEST SUMMARY: NCI In Vivo Anticancer Drug Screen. Data for tumor model L1210 Leukemia (intraperitoneal) in B6D2F1 (BDF1) mice
# TEST CONDITIONS: endpoint: mean survival time; dose: 100.0 mg/kg/injection; schedule: Q01DX001 (ip); vehicle: saline with Tween-80; higher = longer survival
Inconclusive results and toxic doses are left out.
# maps each entry to its T/C

Worked examples, 10 compounds total:
COc1cc(C=O)ccc1OC(=O)Nc1cc(C)ccc1C: 97 % of control
CC(=O)Oc1ccccc1C1OC(=O)c2ccccc2N1C(C)=O (stereo not drawn): 106 % of control
CNC(=S)Nc1c(C)cc(C)cc1C: 91 % of control
CN1CCC(OC(=O)N(c2ccccc2)c2ccccc2)CC1: 99 % of control
CC1=C(C)C(=O)C(SC2CC(=O)OC2=O)=C(C)C1=O (stereo not drawn): 88 % of control
O=C(NCCCl)NC(Cc1ccccc1)C(=O)O (stereo not drawn): 94 % of control
CSc1ccccc1N=Cc1cc(Cl)ccc1O: 90 % of control
O=c1c2ccccc2oc2ccccc12: 102 % of control
CCCCS(=O)(=O)CS(=O)(=O)CC: 98 % of control
CC(=O)NCCO: 100 % of control

Form field: T/C recorded for O=c1ccc2cc3oc(=O)ccc3cc2o1 with L1210 leukemia ip in BDF1 mice, survival T/C (enter value)
90 % of control

Please provide the recorded T/C for O=C(NC(=S)Nc1cc(Cl)ccc1Cl)c1ccc(Cl)cc1Cl , tested on L1210 leukemia ip in BDF1 mice, survival T/C.
92 % of control

// map CCCCCCCCCCCCCCC(CCCCCCCCCCCCCC)C1CCCCC1 to recorded T/C (system: L1210 leukemia ip in BDF1 mice, survival T/C)
92 % of control

Data credit: PubChem BioAssay AID248
